biological target: FLJ39196 clone-derived protein (human neurocalcin δ) (Homo sapiens, UniProt P61601); construct: A human full-length cDNA clone was expressed as a protein with an N-terminal His tag; His tag (N); made in house; host or cells: Escherichia coli BL21star(DE3)pLysS (pDEST17 Gateway expression plasmid); test: SEC/MS interaction analysis (size exclusion spin column and mass analysis) with FLJ39196 clone-derived protein; type: binding; settings: protein 0 μM (protein-free reference), compound 1 μM
Where a name gives a salt, the structure may show the parent alone.
quantity.kind: spectral intensity of the compound in the SEC spin column filtrate (protein fraction)

compound | value.measured
C[C@]12Cc3c[nH]nc3C[C@@H]1CC[C@@H]1[C@@H]2CC[C@@]2(C)[C@H]1CC[C@]2(C)O [stanozolol] | 3108300
O=C(c1ccc(OCCN2CCCCC2)cc1)c1c(-c2ccc(O)cc2)sc2cc(O)ccc12 [Raloxifene hydrochloride] | 3754698
NS(=O)(=O)c1cc2c(cc1Cl)N=C(CSCc1ccccc1)NS2(=O)=O [Benzthiazide] | 271261
CC(C)COCC(CN(Cc1ccccc1)c1ccccc1)N1CCCC1 (centres unmarked) [Bepridil] | 9581826
CN(C)CC/C=C1/c2ccccc2Sc2ccc(Cl)cc21 [Chlorprothixene] | 12908294
